- tested-target: AcrB (Escherichia coli, UniProt P31224, N298A)
- Sequence (P31224 whole entry N298A): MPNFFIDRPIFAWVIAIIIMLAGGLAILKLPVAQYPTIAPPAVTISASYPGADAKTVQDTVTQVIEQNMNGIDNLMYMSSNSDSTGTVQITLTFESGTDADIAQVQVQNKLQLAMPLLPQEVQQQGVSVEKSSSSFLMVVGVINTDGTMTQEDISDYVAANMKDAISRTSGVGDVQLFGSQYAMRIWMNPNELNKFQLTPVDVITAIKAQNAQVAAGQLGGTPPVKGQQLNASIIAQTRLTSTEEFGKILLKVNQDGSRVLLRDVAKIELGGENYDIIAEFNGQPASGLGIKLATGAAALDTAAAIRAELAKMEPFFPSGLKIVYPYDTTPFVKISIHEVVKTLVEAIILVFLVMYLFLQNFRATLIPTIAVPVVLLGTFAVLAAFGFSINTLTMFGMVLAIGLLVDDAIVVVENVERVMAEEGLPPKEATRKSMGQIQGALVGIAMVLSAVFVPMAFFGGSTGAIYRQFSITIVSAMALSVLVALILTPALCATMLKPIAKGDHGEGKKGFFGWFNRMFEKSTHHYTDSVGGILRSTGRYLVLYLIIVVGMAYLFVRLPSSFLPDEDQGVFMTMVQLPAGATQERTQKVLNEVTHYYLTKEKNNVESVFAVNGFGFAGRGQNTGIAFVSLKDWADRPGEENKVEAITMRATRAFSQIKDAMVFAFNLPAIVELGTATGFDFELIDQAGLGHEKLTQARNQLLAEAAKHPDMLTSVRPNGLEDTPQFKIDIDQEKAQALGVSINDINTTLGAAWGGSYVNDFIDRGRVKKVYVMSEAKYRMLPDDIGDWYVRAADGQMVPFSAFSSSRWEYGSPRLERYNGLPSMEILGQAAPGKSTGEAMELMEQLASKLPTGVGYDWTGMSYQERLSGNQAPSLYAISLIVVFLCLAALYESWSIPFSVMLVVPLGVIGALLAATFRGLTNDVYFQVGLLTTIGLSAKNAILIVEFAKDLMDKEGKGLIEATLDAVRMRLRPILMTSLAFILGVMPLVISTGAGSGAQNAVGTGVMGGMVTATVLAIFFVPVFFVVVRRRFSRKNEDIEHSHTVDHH
- test-summary: ITC
quantity-kind: pKd
As a rule, pKd stands for the negative log10 of the concentration, concentration in M.

The compound CC(=O)O[C@H]1C[C@@]2(C)[C@@H](C[C@@H](O)[C@H]3[C@@]4(C)CC[C@@H](O)[C@@H](C)[C@@H]4CC[C@@]32C)/C1=C(\CCC=C(C)C)C(=O)O [FUA, fusidic acid] on AcrB (Escherichia coli, UniProt P31224, N298A): pKd was 2.95

* * *

- tested-target: AcrB (Escherichia coli, UniProt P31224, V340A)
- test-summary: ITC
quantity-kind: pKd
As a rule, pKd stands for the negative log10 of the concentration, concentration in M.

Documented pKd of CC(=O)O[C@H]1C[C@@]2(C)[C@@H](C[C@@H](O)[C@H]3[C@@]4(C)CC[C@@H](O)[C@@H](C)[C@@H]4CC[C@@]32C)/C1=C(\CCC=C(C)C)C(=O)O : 3.08
